Origin of the recorded values: the supplement of paper PMC9170038

- System: MS2 coat protein
- assay-overview: apparent KD of MS2 coat protein, switch ON state; designed switch direction (-1 OFF switch, 1 ON switch): -1; higher = weaker reporter binding
- conditions-used: FMN input: 0 or 200 uM; Eterna round: R93 (includes R88 designs)
apparent KD of MS2 coat protein vs 0.03 µM: at or above is Condition met, below is Condition not met.

INSERT INTO measurements (sequence_code, category_label) VALUES
  ('AAAACAAAAGGAUAUAAAAACAAAAGUCAGGAUAUAGGAAACUAGAAGGGACAUGAGGAUCACCCAUGUAAAAC [Meechl Ex4 R2 m3]', 'Condition met'),
  ('AAAAAUUGAGGAUAUACGAACAUGUCGAAAGACGUGAAGGGACAUGAGGAUCACCCAUGUAGAAGGCGAAAGAA [Mat - Exclusion 2 - JL mod - D67]', 'Condition met'),
  ('AAAAAGGCAGGAUAUACAUGAGGAUCACCCAUGUAAAGAAAGAAAGAAGAAAGGGAAAGUAGAAGGGCCAAAAA [Ex3 sub 1]', 'Condition met'),
  ('AAGACUAGAGGAUAUACAUGAGGAUCACCCAUGUAACUGUCAGGAAACUGACGGAGAUGUAGAAGGCUAGUCAA [Mat - Exclusion 3 - Neo mod - D75]', 'Condition not met'),
  ('GUGUACAGAGGAUAUACAUGAGCUAGGAAACUAGCAGGAUCACAUGAGGAUCACCCAUGUAGAAGGCUGUACAC [Ex2: 731]', 'Condition met'),
  ('AAAAAGUGAGGAUAUACAUGAGGAUCACCCAUGUGUAUAAAAAAUUACACAAAAGCAUGUAGAAGGCACUAAAA [JL In the Red]', 'Condition met'),
  ('AAAAAACAUGAGGAUCACCCAUGUAAGGAUAUGCUCGUGCGAAAGCACAAAAAAAAGAGCAGAAGGUACAAAAA [66%, Wbt, 38]', 'Condition not met'),
  ('AAAAAAAAAGGAUAUACAGGAGGUAAGGUCGGACAAAAAAGACAUGAGGAUCACCCAUGUAGAAGGUUUAAAAA [Excls2-X]', 'Condition met'),
  ('GGAAAACAUGAGGAUCACCCAUGUCAGGAUAUACAAAGAAAGAAAGAAAAGAAAGAAAGUAGAAGGGACAAAAG [Amethyst 15]', 'Condition not met'),
  ('AAAAAGUGAGGAUAUACGCUGAAGAGAAGACACAACCAGGCGUAGAAGGCACAUGAGGAUCACCCAUGUACAAA [Ex4 Malc#8]', 'Condition not met'),
  ('CAAAAGGAAGGAUAUACAUAAUAAAACGGGCGGGCACCUUGACAUGAGGAUCACCCAUGUAGAAGGUCCAAUAA [Ramaanan]', 'Condition not met'),
  ('AACAGUACAGGAUAUACAUGAGGAUCACCCAUGUGAUAGGAAUAAAACAAAAAUAAAAGUAGAAGGGUACUGGA [Ruby 46]', 'Condition met'),
  ('AGCACGUCAGGAUAUACGAAAAAAAAGGGUAAACUAAAGGGACAUGAGGAUCACCCAUGUAGAAGGGACAAGCA [Diamond 92]', 'Condition met'),
  ('AAGAACUGAGGAUAUACAUGAAAGAAAGAAAAGAAAAGAAAACAUGAGGAUCACCCAUGUAGAAGGCAGAAGAA [EteRNA is fun!]', 'Condition not met'),
  ('AAAAAACAUGAGGAUCACCCAUGUGAGGAUAUGUACGAAAUAAAUAAAAAAUAAAAGUACAGAAGGCACAAAAA [Mat - Exclusion 1 - Eli mod - D5]', 'Condition met'),
  ('AAACAACAUGAGGAUCACCCAUGUUAGGAUAUGAACGAAAUAAAAUAAAAAUAAAAGUUCAGAAGGGACAAAAA [Mat - Exclusion 1 - Eli mod - D21]', 'Condition not met'),
  ('AAGGUACGAGGAUAUACAUAGAUACAGACACAUGUACAUGUACAUGAGGAUCACCCAUGUAGAAGGCGUAUAUG [Mat - Same state - Mayanna Mod - D109]', 'Condition met'),
  ('ACUAACGGAGGAUAUACUAACAAACCUCAAACAUACAUCAAACAUGAGGAUCACCCAUGUAGAAGGCCGAAACU [JR_Exc002_Sub004]', 'Condition met'),
  ('AUAAACUGAGGAUAUACAUGAGGAUCACCCAUGUAAAAAAAAAAAAGUUCCUCAAAAAGUAGAAGGCAGAAUAA [JR_Exc003_Sub013]', 'Condition not met'),
  ('AACAGUACAGGAUAUACAUGAGGAUCACCCAUGUGAGAAUUAAAAGGCGUACCUAAAUGUAGAAGGGUACUGGA [JL Maslow Revisted mod 19]', 'Condition met'),
  ('AGCAGUACAGGAUAUACAUGAGGAUCACCCAUGUGAAAAAAAAGUGGCGUACCACAAAGUAGAAGGGUACUGCA [Mat - Exclusion 3 - JL mod - D32]', 'Condition met'),
  ('AACAAGUGAGGAUAUGAAAAUAAAACAAACAAACAAAUAAAUCAGAAGGCACAUGAGGAUCACCCAUGUAAAAA [JR_Exc004_Sub1203]', 'Condition not met'),
  ('AAAUUGUCAGGAUAUCGUAGAAUAGUGAAAAACUAGAGCUACGAGAAGGGACAUGAGGAUCACCCAUGUAAAAC [May 92]', 'Condition met'),
  ('GGAAAACAUGAGGAUCACCCAUGUGAGGAUAUCGAUGUCCAAAAGAAAGUGCGGGACUCGAGAAGGCACUUGGA [salish99-ex1-36]', 'Condition met'),
  ('CAAAGGUGAGGAUAUACGAGGAUAUGACGAAAGUCAUAAAAACAUGAGGAUCACCCAUGUAGAAGGCACCACAA [E2 64% 5]', 'Condition not met');
